target: Voltage-dependent T-type calcium channel subunit alpha-1H (Homo sapiens); experiment: Inhibition of human recombinant Cav3.2 alpha1 subunit expressed in HEK293T cells assessed as inhibition of calcium influx measured for 300 secs by FLIPR assay
Sequence (O95180 whole entry): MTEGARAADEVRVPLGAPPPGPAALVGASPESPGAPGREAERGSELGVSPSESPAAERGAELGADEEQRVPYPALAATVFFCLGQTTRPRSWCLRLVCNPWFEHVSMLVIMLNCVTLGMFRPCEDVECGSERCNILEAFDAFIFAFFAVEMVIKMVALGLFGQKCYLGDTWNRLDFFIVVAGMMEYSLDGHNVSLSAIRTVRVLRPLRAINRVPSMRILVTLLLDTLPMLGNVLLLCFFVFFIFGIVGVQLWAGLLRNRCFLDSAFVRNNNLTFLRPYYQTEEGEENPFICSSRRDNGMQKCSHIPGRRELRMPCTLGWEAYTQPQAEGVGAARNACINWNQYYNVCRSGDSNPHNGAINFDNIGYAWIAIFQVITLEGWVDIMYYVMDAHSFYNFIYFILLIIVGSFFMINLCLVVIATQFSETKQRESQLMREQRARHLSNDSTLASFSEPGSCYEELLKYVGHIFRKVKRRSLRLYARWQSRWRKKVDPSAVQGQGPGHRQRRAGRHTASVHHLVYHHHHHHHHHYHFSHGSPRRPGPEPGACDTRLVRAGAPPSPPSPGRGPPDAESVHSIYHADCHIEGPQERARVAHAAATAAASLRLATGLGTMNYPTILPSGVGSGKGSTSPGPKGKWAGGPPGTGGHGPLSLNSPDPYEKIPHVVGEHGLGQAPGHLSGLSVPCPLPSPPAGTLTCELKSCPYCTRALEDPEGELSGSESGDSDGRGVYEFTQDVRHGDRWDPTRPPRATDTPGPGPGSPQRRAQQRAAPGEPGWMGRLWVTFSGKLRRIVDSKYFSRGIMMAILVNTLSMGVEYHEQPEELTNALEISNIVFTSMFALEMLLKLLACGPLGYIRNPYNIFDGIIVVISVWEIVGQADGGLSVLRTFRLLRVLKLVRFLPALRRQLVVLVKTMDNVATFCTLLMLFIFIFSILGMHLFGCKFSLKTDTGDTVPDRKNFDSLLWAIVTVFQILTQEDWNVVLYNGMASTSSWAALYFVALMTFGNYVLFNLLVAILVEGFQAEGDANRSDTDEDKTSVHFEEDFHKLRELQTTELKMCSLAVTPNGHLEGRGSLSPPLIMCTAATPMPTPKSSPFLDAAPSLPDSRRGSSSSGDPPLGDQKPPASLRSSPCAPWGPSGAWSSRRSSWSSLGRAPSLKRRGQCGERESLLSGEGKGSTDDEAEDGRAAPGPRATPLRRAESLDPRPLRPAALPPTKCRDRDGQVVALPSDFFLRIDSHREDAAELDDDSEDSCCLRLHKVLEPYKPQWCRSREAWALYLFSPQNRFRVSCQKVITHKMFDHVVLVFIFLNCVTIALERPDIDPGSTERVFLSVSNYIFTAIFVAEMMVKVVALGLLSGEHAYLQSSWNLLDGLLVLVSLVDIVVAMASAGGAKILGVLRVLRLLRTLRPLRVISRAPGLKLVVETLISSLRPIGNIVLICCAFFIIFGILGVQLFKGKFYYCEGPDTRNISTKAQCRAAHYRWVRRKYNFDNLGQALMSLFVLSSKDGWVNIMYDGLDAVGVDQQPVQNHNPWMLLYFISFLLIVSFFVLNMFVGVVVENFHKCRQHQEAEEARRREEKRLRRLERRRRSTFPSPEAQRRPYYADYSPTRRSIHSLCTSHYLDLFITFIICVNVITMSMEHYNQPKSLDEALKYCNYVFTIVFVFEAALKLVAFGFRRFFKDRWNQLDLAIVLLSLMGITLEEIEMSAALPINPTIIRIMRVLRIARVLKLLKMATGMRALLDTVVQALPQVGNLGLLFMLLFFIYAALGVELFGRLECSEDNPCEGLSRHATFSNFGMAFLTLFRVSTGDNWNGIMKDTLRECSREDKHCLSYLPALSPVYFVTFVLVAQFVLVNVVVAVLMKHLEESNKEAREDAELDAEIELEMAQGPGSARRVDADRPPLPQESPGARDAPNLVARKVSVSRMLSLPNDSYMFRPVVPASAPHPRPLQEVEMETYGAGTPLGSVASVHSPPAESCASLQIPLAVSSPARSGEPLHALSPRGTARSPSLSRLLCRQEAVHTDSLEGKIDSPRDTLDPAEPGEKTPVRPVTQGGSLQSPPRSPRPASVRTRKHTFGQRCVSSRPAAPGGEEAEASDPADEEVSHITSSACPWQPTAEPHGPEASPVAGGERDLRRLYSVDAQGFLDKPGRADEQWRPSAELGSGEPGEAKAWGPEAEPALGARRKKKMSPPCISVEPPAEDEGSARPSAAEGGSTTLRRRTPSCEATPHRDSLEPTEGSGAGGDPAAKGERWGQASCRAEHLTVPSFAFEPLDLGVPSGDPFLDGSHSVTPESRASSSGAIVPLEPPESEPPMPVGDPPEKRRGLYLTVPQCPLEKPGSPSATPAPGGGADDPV
Readout Kind: log10(IC50) (log10 of the value in µM)
For clarity, the numbers are log10 values of IC50 expressed in µM.

Answered cases to consult:
Fc1ccc(Oc2ccccc2NCc2ccc(OCCCn3ccnc3)cc2)cc1 | 2.29
c1ccc(Oc2ccc(NCc3ccc(OCCCN4CCCC4)cc3)cc2)cc1 | 2.30

Provide reported log10(IC50) for each item, in the same order as listed.
1. N#Cc1ccc(Oc2ccc(NCc3ccc(OCCCn4ccnc4)cc3)cc2)cc1
2. Fc1ccc(Oc2ccc(NCc3ccc(OCCCN4CCCC4)cc3)cc2)cc1

Output:
1. 2.57
2. 2.32

###

molecular target: Voltage-dependent N-type calcium channel subunit alpha-1B (Homo sapiens); assay: Inhibition of Cav2.2 in human SH-SY5Y cells assessed as inhibition of calcium influx measured for 300 secs in presence of Cav1 blocker, nifedipine by FLIPR assay
Sequence (Q00975 whole entry): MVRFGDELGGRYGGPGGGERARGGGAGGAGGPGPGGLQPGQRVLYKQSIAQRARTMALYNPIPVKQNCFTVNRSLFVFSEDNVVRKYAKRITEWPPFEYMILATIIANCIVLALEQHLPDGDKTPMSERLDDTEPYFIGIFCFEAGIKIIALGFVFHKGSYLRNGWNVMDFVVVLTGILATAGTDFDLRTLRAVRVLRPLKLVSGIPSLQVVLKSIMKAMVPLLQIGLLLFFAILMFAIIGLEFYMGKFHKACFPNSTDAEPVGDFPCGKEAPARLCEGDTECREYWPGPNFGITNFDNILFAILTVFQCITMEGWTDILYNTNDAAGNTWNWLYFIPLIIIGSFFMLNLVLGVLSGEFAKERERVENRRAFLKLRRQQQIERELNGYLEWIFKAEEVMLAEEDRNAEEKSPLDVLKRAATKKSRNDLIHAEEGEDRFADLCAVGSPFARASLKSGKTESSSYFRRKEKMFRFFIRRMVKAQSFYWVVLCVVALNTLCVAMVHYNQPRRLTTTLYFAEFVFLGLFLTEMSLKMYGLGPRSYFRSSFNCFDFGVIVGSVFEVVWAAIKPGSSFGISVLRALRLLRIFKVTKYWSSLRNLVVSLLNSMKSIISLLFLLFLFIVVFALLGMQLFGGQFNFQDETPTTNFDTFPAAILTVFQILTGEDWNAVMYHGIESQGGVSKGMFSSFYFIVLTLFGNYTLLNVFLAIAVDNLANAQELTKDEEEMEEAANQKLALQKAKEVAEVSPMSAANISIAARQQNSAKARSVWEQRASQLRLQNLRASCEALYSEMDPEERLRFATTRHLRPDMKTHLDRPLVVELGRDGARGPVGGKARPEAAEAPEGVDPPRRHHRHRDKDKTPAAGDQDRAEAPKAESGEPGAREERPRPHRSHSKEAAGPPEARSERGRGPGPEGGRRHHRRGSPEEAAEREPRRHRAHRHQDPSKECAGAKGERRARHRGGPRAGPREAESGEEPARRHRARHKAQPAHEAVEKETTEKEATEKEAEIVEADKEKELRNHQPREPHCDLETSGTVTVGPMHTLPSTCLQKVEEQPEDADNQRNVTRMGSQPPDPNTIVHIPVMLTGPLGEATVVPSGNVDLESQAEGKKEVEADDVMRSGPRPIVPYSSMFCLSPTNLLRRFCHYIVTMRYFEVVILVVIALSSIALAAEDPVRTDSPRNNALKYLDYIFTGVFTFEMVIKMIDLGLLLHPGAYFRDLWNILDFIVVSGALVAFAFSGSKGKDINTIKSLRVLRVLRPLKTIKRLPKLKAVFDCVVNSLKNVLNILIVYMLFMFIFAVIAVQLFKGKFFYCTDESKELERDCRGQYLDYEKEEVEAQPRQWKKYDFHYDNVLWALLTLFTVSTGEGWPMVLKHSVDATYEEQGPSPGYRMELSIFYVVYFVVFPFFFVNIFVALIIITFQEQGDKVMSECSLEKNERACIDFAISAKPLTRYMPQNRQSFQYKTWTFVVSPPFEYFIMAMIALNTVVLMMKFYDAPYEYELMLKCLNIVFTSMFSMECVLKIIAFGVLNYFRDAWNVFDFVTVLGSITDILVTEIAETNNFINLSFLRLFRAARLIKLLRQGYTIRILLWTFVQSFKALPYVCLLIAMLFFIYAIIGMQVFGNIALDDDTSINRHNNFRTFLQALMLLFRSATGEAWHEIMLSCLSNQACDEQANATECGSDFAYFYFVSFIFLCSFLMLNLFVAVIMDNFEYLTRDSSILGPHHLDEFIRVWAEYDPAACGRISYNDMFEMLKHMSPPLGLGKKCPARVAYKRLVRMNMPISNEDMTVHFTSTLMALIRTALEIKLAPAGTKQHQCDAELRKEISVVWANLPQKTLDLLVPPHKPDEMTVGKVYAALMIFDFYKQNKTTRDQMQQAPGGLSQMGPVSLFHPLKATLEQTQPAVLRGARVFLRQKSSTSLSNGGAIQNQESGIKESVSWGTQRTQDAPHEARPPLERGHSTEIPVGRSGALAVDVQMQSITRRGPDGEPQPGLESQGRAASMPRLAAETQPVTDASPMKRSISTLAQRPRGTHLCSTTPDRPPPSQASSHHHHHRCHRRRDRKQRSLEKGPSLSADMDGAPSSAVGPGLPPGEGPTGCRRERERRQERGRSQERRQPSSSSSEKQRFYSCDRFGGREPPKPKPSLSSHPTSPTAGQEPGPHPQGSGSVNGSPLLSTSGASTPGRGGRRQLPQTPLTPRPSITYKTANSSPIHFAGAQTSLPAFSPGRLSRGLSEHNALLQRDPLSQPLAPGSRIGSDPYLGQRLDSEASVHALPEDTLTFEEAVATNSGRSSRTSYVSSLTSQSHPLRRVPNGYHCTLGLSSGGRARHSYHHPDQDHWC
// class assignment uses IC50 with these ranges: lo (below 40 µM), mid (40 µM to below 60 µM), hi (60 µM or more)

Observe how each entry below is paired with its result.
FC(F)(F)c1ccc(Oc2ccccc2NCc2ccc(OCCCN3CCCC3)cc2)cc1 | mid
Fc1ccc(Oc2ccc(NCc3ccc(OCCCN4CCCC4)cc3)cc2)cc1 | mid
c1ccc(Oc2cccc(NCc3ccc(OCCCN4CCCCC4)cc3)c2)cc1 | hi
Fc1ccc(Oc2ccc(NCc3ccc(OCCCn4ccnc4)cc3)cc2)cc1 | hi
FC(F)(F)c1ccc(Oc2ccc(NCc3ccc(OCCCN4CCCC4)cc3)cc2)cc1 | mid

Input: Exam item: assign "N#Cc1ccc(Oc2ccc(NCc3ccc(OCCCN4CCCC4)cc3)cc2)cc1" to the correct category.
Output: lo

Input: Exam item: assign "N#Cc1ccc(Oc2ccc(NCc3ccc(OCCCn4ccnc4)cc3)cc2)cc1" to the correct category.
Output: hi

Input: Exam item: assign "c1ccc(Oc2ccc(NCc3ccc(OCCCN4CCCC4)cc3)cc2)cc1" to the correct category.
Output: lo

Input: Exam item: assign "CNCCCOc1ccc(CNc2ccccc2Oc2ccc(C(F)(F)F)cc2)cc1" to the correct category.
Output: mid

Input: Exam item: assign "Fc1ccc(Oc2ccccc2NCc2ccc(OCCCn3ccnc3)cc2)cc1" to the correct category.
Output: lo

Input: Exam item: assign "N#Cc1ccc(Oc2ccc(NCc3ccc(OCCCN4CCCCC4)cc3)cc2)cc1" to the correct category.
Output: lo

###

molecular target: Voltage-dependent T-type calcium channel subunit alpha-1H (Homo sapiens); assay: Inhibition of human recombinant Cav3.2 alpha1 subunit expressed in HEK293T cells assessed as inhibition of calcium influx measured for 300 secs by FLIPR assay
Readout Kind: log10 of IC50 (log10 of the value in µM)
For clarity, the numbers are log10 values of IC50 expressed in µM.

N#Cc1ccc(Oc2ccc(NCc3ccc(OCCCN4CCCCC4)cc3)cc2)cc1 | 1.34

Provide reported log10 of IC50 for each item, in the same order as listed.
1. N#Cc1ccc(Oc2ccc(NCc3ccc(OCCCN4CCCC4)cc3)cc2)cc1
2. FC(F)(F)c1ccc(Oc2ccccc2NCc2ccc(OCCCN3CCCC3)cc2)cc1
3. Fc1ccc(Oc2cccc(NCc3ccc(OCCCN4CCCCC4)cc3)c2)cc1
4. FC(F)(F)c1ccc(Oc2ccc(NCc3ccc(OCCCN4CCCC4)cc3)cc2)cc1
5. CNCCCOc1ccc(CNc2ccccc2Oc2ccc(C(F)(F)F)cc2)cc1

Output:
1: 2.16; 2: 2.04; 3: 2.47; 4: 2.26; 5: 2.31

// data source = ChEMBL document CHEMBL5344473
